# procedure details: Cytotoxicity against human Chang cells assessed as reduction in cell viability by fluorescence based viable cell counting method
# test conditions: Homo sapiens; read-out: IC50
pIC50: −log10 of the molar value.
The following compounds are listed with their measured pIC50 values.
endpoint name: pIC50

- CC(C)(C)c1cc(CP(=O)(Oc2ccccc2)Oc2ccccc2)cc(C(C)(C)C)c1O: 4.40
- CC(C)OP(=O)(C=C1C=C(C(C)(C)C)C(=O)C(C(C)(C)C)=C1)OC(C)C: 4.65
- COP(=O)(C=C1C=C(C(C)(C)C)C(=O)C(C(C)(C)C)=C1)OC: 4.62
- COc1cccc2c1C(=O)c1c(O)c3c(c(O)c1C2=O)C[C@@](O)(C(=O)CO)C[C@@H]3O[C@H]1C[C@H](N)[C@H](O)[C@H](C)O1 [DOXORUBICIN]: 5.89
- CC(C)(C)c1cc(C(c2ccc(N)nc2N)P(=O)(Oc2ccccc2)Oc2ccccc2)cc(C(C)(C)C)c1O (stereo not drawn): 4.28
- CCCOP(=O)(OCCC)C(c1cc(C(C)(C)C)c(O)c(C(C)(C)C)c1)c1ccc(N)nc1N (stereo not drawn): 4.55

Just for reference, ChEMBL document CHEMBL4311994 is where these values come from.
